Biological target: mCST∆C (Mus musculus, UniProt Q61420)
Construct: modifying the full-length construct using site-directed mutagenesis to remove the last 15 residues (322-336); made in house; host or cells: Pichia pastoris
Test: Scintillation proximity binding assay (SPA), displacement of 30 nM [3H]CMP
Conditions: full SPA titration against 30 nM [3H]CMP
metric-name: Kd (µM)
Give bare numbers, in µM.

Study these solved cases before continuing.
compound	Kd (µM)
O=c1ccn([C@@H]2O[C@H](COP(=O)(O)O)[C@@H](O)[C@H]2O)c(=O)[nH]1 [UMP, Uridine 5′-monophosphate]	1620
Nc1nc2c(ncn2[C@@H]2O[C@H](COP(=O)(O)O)[C@@H](O)[C@H]2O)c(=O)[nH]1 [GMP, Guanosine 5′-monophosphate]	5380

Now examine the next entry.
Request: I have this compound here, Nc1ccn([C@@H]2O[C@H](COP(=O)(O)O)[C@@H](O)[C@H]2O)c(=O)n1 [CMP, Cytidine 5'-monophosphate] , and I need its recorded Kd.
Result: 1.8

###

Molecular target: mCST (W145L) (Mus musculus, UniProt Q61420, W145L)
Assay: Intrinsic tryptophan fluorescence quenching assay
metric-name: Kd (µM)
One number for each entry, in µM.

Request: Lab note: need Kd for Nc1ccn([C@@H]2O[C@H](COP(=O)(O)O)[C@@H](O)[C@H]2O)c(=O)n1 [CMP, Cytidine 5'-monophosphate] on mCST (W145L) (Mus musculus, UniProt Q61420, W145L), anyone have it?
Result: 3.3

###

Target: mCST (Mus musculus)
Sequence (Q61420 1-336): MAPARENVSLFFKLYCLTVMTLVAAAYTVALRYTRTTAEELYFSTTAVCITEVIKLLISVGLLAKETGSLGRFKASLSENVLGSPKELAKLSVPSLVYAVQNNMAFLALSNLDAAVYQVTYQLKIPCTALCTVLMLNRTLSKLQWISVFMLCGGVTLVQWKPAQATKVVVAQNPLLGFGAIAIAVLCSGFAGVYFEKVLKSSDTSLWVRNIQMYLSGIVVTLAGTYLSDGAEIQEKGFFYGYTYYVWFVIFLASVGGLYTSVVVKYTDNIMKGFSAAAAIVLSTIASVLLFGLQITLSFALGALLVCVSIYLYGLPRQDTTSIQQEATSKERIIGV
Test: Scintillation proximity binding assay (SPA), displacement of 30 nM [3H]CMP
Set-up: Full-length mCST cDNA was synthesized (Bio Basic) and subcloned into the Pichia pastoris expression vector pPICZ; made in house; host or cells: Pichia pastoris
Details: full SPA titration against 30 nM [3H]CMP; purified detergent-solubilized mCST; read-out: Kd (SPA titration)
metric-name: Kd (µM)
One number for each entry, in µM.

Request: Request body: readout Kd, system mCST (Mus musculus), query Nc1ccn([C@@H]2O[C@H](COP(=O)(O)O)[C@@H](O)[C@H]2O)c(=O)n1 [CMP, Cytidine 5'-monophosphate] . Return the value.
Result: 6.3

###

Target: mCST∆C (Mus musculus, UniProt Q61420)
Construct: modifying the full-length construct using site-directed mutagenesis to remove the last 15 residues (322-336); made in house; host or cells: Pichia pastoris
Assay: Intrinsic tryptophan fluorescence quenching assay
Format: binding
Details: fit of tryptophan fluorescence quenching, read-out: Kd (Trp-FL)
metric-name: Kd
Could you kindly put the unit after your number?

Request: Would you kindly share the measured Kd for Nc1ccn([C@@H]2O[C@H](COP(=O)(O)O)[C@@H](O)[C@H]2O)c(=O)n1 [CMP, Cytidine 5'-monophosphate] ?
Result: 11.1 µM
